// reported pEC50 per item
target_of_assay: human somatostatin receptor subtype 2 (Homo sapiens, UniProt P30874)
Sequence (P30874 whole entry): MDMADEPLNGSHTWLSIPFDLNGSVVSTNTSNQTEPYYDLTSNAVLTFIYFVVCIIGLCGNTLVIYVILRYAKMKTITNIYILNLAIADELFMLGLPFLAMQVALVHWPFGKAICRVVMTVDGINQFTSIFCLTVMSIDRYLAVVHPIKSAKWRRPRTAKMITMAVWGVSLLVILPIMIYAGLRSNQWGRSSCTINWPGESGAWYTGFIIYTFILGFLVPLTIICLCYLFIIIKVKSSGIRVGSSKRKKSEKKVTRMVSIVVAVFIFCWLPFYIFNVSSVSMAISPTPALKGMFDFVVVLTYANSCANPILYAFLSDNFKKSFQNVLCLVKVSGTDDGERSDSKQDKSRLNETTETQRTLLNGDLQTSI
assay_text: cAMP assay for SST2R (inhibition of cAMP in CHO-K1 cells)
cond: Table B; inhibition of cAMP via human SST2 receptor; read-out: SST2 potency
pEC50: −log10 of the molar value.

// below: answered compounds
compound	target_of_assay	result
C[C@H](NC(=O)c1cnc(C#N)c(-c2ccnc(C(F)(F)F)c2)c1N1CC[C@](C)(N)C1)C1CC1	human somatostatin receptor subtype 2 (Homo sapiens, UniProt P30874)	6.00 to 7.00
COc1ncc(C(=O)NC23CC(C2)C3)c(N2CC[C@](C)(N)C2)c1-c1cc(F)cc(F)c1	human somatostatin receptor subtype 2 (Homo sapiens, UniProt P30874)	6.00 to 7.00
COc1ncc(C(=O)NC23CC(F)(C2)C3)c(N2CC[C@](C)(N)C2)c1-c1cc(F)cc(F)c1	human somatostatin receptor subtype 2 (Homo sapiens, UniProt P30874)	6.00 to 7.00
COc1cc(-c2c(C#N)ncc(C(=O)NC3CCCCC3)c2N2CC[C@](C)(N)C2)ccn1	human somatostatin receptor subtype 2 (Homo sapiens, UniProt P30874)	6.00 to 7.00
N#Cc1ncc(C(=O)NC2CCCCC2)c(N2CC[C@H](N)C2)c1-c1cc(F)cc(F)c1	human somatostatin receptor subtype 2 (Homo sapiens, UniProt P30874)	6.00 to 7.00

Problem: What does the record list as pEC50 for "CCCCNC(=O)c1cnc(C#N)c(-c2ccnc(OC)c2)c1N1CC[C@](C)(N)C1" ?
Solution: < 6.00

Problem: Which pEC50 value is on record for "C[C@H](NC(=O)c1cnc(C#N)c(-c2cccc(OC(F)F)c2)c1N1CC[C@](C)(N)C1)C(F)(F)F" ?
Solution: 6.00 to 7.00

Problem: Endpoint output: pEC50 of Cc1cc(C)cc(NC(=O)c2cncc(-c3cc(C)cc(C)c3)c2N2CCC(CN)C2)c1 (centres unmarked) [reference compound] . Value?
Solution: > 8.00
